# assay method text: qHTS for Inhibitors of human tyrosyl-DNA phosphodiesterase 1 (TDP1): qHTS in cells in presence of CPT; note: nearly all actives have a fitted effect of over 55% in size
# measurement conditions: chicken DT40 Tdp1-/-;hTDP1 cells + 20 nM CPT, ATP luminescence, 48 h; series mostly up to 46.2 µM
About 50,000 (12%) of roughly 420,000 compounds were called active. About 26% were inconclusive and are not listed. Calls come from the whole dose curve; as a rule, active = well fitted inhibition curve with a large enough effect; inconclusive = small, poorly fitted or top-dose-only effect; inactive = flat fitted curve, though single readings scatter. What follows is part of a selection rich in actives, with near analogues and random picks from the rest.
Pick one: 1.0 = active, 0.0 = inactive

Illustrative cases are given below, each with its answer.
1) COc1ccc(C(=O)NC(=S)Nc2ccccc2N2CCN(S(C)(=O)=O)CC2)cc1OC = 1.0
2) CCOC(=O)c1c(NC(=O)NC(C)(C)C)sc2c1CCN(C)C2 = 0.0
3) CC1CCCCN1Cc1c(O)ccc2c(=O)c(-c3cccc(Cl)c3)c(C(F)(F)F)oc12 (centres undefined) = 0.0

query: Can you look up the reported call for CCCCCn1c(=O)[nH]c2cc(C(=O)Nc3cc(C)cc(C)c3)ccc2c1=O for me?
result: 1.0

query: Now the same for COc1ccc(/C=C/c2nnc(NC(=O)C(C)C)s2)cc1
result: 0.0

query: Now the same for Cc1cccc2c1N(CCOc1ccccc1)C(=O)C2=O
result: 1.0

query: Now the same for CN(C)N1C(N)=C(C#N)C(c2ccc(Br)cc2)C2=C1CCCC2=O (centres undefined)
result: 0.0

query: Now the same for COc1ccc(CCNC(=O)COC(=O)c2cc(=O)c3ccccc3o2)cc1
result: 0.0

query: Now the same for COC(=O)Cc1nc2c(N)nc(N)nc2[nH]c1=O
result: 0.0

query: Now the same for C/C(N)=C(/C#N)C(=O)COC(=O)C1CCN(C(=O)c2ccc(Cl)cc2)CC1
result: 0.0

query: Now the same for COc1cc2ccccc2cc1C(=O)Nc1ccccc1C
result: 0.0

query: Now the same for COC(=O)c1sc2[nH]c(=S)n(N)c(=O)c2c1C
result: 0.0

====

# assay method text: qHTS for Inhibitors of human tyrosyl-DNA phosphodiesterase 1 (TDP1): qHTS in cells in presence of CPT; note: nearly all actives have a fitted effect of over 55% in size
# measurement conditions: chicken DT40 Tdp1-/-;hTDP1 cells + 20 nM CPT, ATP luminescence, 48 h; series mostly up to 46.2 µM
About 50,000 (12%) of roughly 420,000 compounds were called active. About 26% were inconclusive and are not listed. Calls come from the whole dose curve; as a rule, active = well fitted inhibition curve with a large enough effect; inconclusive = small, poorly fitted or top-dose-only effect; inactive = flat fitted curve, though single readings scatter. The sample holds actives, similar compounds and a random draw of the others, so the mix is not that of the screen.
Pick one: true (1) for active, false (0) for inactive

1. COCCNC(=O)C(c1ccc(C)cc1)N(C(=O)CCC(=O)Nc1ccccn1)c1cccc(C)c1 (stereo unspecified) = false (0)
2. COc1ccc(S(=O)(=O)N2CCC(C(=O)NCc3ccco3)CC2)cc1C = false (0)
3. Cc1nnc(SCC(=O)N/N=C/c2cn(-c3ccccc3)nc2-c2ccc(F)cc2)n1-c1ccccc1 = false (0)
4. CCCNC(=O)c1cnc(-c2ccccc2)nc1-c1ccccc1 = false (0)
5. O=C(CNC(=O)c1ccc(Br)o1)Nc1ccccc1 = false (0)
6. COC(=O)Cc1csc(/N=C/c2c(O)n(-c3cccc(C(F)(F)F)c3)c(=O)c3ccccc23)n1 = true (1)
7. COC(=O)c1cc(NC(=O)CC2C(=O)NCCN2C(=O)c2ccc(F)cc2)cc(C(=O)OC)c1 (stereo unspecified) = false (0)
8. Cc1cc(=O)cc(C)n1-c1ccc(Cl)c(Cl)c1 = false (0)

query: Can you look up the reported call for O=C(NCc1ccccc1)[C@@H]1CSC2c3ccccc3C(=O)N21 (stereo partly specified) for me?
result: false (0)

query: Now the same for Cn1c(=O)c2ccccc2n(CC(=O)Nc2ccc3c(c2)OCCO3)c1=O
result: false (0)

query: Now the same for CCC(O)CNc1nc(-n2nc(C)cc2C)nc2sc3c(c12)CC(C)(C)OC3 (stereo unspecified)
result: true (1)

query: Now the same for COc1cccc2c1C(=O)c1c(O)c3c(c(O)c1C2=O)CC(O)(C(C)=NNC(=O)c1ccc(Cl)c(Cl)c1)CC3OC1CC(N)C(O)C(C)O1 (stereo unspecified)
result: true (1)

query: Now the same for CC(C(=O)c1ccc(-c2ccccc2)cc1)[n+]1cccc(Br)c1 (stereo unspecified)
result: false (0)

query: Now the same for O=C(NCc1ccccn1)c1c(O)c2c([nH]c1=O)CCCC2
result: false (0)

query: Now the same for COc1cccc(/C=C/C(=O)Nc2ccc3c(c2)OCCO3)c1
result: false (0)

query: Now the same for O=NN(CCCl)C(=O)NCCc1cccc[n+]1[O-]
result: false (0)

query: Now the same for COc1ccc(-c2cc(C(=O)NCc3ccco3)no2)cc1OC
result: false (0)
